Reported Kd is given for each of the following binders.
Molecular target: UbcH5BS~Ub (UbcH5B C85S covalently ester-linked to the C-terminus of ubiquitin) (UniProt P62837;P0CG48, C85S)
Experiment: SPR
PROPERTY_NAME: Kd (µM)

INSERT INTO assay_data (binder, property_name, u, value_measured) VALUES
  ('GST-BIRC7 full length (enzyme) MGPKDSAKCLHRGPQPSHWAAGDGPTQERCGPRSLGSPVLGLDTCRAWDHVDGQILGQLRPLTEEEEEEGAGATLSRGPAFPGMGSEELRLASFYDWPLTAEVPPELLAAAGFFHTGHQDKVRCFFCYGGLQSWKRGDDPWTEHAKWFPSCQFLLRSKGRDFVHSVQETHSQLLGSWDPWEEPEDAAPVAPSVPASGYPELPTPRREVQSESAQEPGGVSPAEAQRAWWVLEPPGARDVEAQLRRLQEERTCKVCLDRAVSIVFVPCGHLVCAECAPGLQLCPICRAPVRSRVRTFLS', 'Kd', 'µM', 181),
  ('GST-BIRC3(541–C) (domain or fragment) DLPVEEQLRRLQEERTCKVCMDKEVSIVFIPCGHLVVCKDCAPSLRKCPICRSTIKGTVRTFLS', 'Kd', 'µM', 5),
  ('MDM2(428–C)–MDMX(428–C) (complex) chain 1: SSLPLNAIEPCVICQGRPKNGCIVHGKTGHLMACFTCAKKLKKRNKPCPVCRQPIQMIVLTYFP chain 2: EDCQNLLKPCSLCEKRPRDGNIIHGRTGHLVTCFHCARRLKKAGASCPICKKEIQLVIKVFIA', 'Kd', 'µM', 130),
  ('GST-BIRC7(239–C) (domain or fragment) VEAQLRRLQEERTCKVCLDRAVSIVFVPCGHLVCAECAPGLQLCPICRAPVRSRVRTFLS', 'Kd', 'µM', 136);
